Listed here are compounds together with their documented normalised response.
- System: MFM-223
- experimentSummary: normalised response (% of control), CellTiter-Glo; higher = more viable cells (100 = DMSO, 0 = benzethonium chloride kill control)
- conditionSummary: incubation time: 72 h
Field format: number, assumed %, no unit text.

# count of solved cases: 4
| compound | systemUnderTest | quantitativeResult |
| --- | --- | --- |
| CN(c1ccccc1CNc1nc(Nc2ccc3c(c2)CC(=O)N3)ncc1C(F)(F)F)S(C)(=O)=O (10000 nM) | MFM-223 | 48.2 |
| FC(F)c1nc2ccccc2n1-c1nc(N2CCOCC2)nc(N2CCOCC2)n1 [ZSTK474] (10000 nM) | MFM-223 | 29.5 |
| C#Cc1cccc(Nc2ncnc3cc(OC)c(OCCCCCCC(=O)NO)cc23)c1 [CUDC-101] (10000 nM) | MFM-223 | 26.4 |
| COc1ncc(-c2ccc3nccc(-c4ccnnc4)c3c2)cc1NS(=O)(=O)c1ccc(F)cc1F (1000 nM) | MFM-223 | 33.4 |

Please give the measured normalised response for this compound: COc1cc(Nc2ncc(F)c(Nc3ccc4c(n3)NC(=O)C(C)(C)O4)n2)cc(OC)c1OC [Tamatinib] (10000 nM) 110

Please give the measured normalised response for this compound: COC(=O)C[C@](O)(CCCC(C)(C)O)C(=O)O[C@@H]1C(OC)=C[C@]23CCCN2CCc2cc4c(cc2[C@H]13)OCO4 [Omacetaxine] (10000 nM) 3.94

Please give the measured normalised response for this compound: CCOc1cc2ncc(C#N)c(Nc3ccc(OCc4ccccn4)c(Cl)c3)c2cc1NC(=O)/C=C/CN(C)C [Neratinib] (1000 nM) 62.8

Where these numbers come from: the supplement of paper PMC4862054
